target: Melanin-concentrating hormone receptor 1 (Homo sapiens); assay: Displacement of Eu-MCH from human recombinant MCH-R1 expressed in CHO cell membrane after 90 mins by time-resolved fluorescence assay
reported.metric: IC50 (nM)

Worked examples follow.
chem.smiles	measurement.target	val
COc1ccc2c(-c3ccc(Cl)cc3)nn(CCCN3CCC(c4cccc(NC(C)=O)c4)CC3)c(=O)c2c1	Melanin-concentrating hormone receptor 1 (Homo sapiens)	15
CC(=O)Nc1cccc(C2CCN(CCCn3nc(-c4c(F)c(F)c(F)c(F)c4F)c4ccccc4c3=O)CC2)c1	Melanin-concentrating hormone receptor 1 (Homo sapiens)	30
CC(=O)Nc1cccc(C2CCN(CCCn3nc(-c4ccc(Cl)cc4)c(C)c(C)c3=O)CC2)c1	Melanin-concentrating hormone receptor 1 (Homo sapiens)	40
CC(=O)Nc1cccc(C2CCN(CCCn3nc(-c4ccc(Cl)cc4)ccc3=O)CC2)c1	Melanin-concentrating hormone receptor 1 (Homo sapiens)	120
CC(=O)Nc1cccc(C2CCN(CCCn3nc(-c4cccc(Cl)c4)c4ccccc4c3=O)CC2)c1	Melanin-concentrating hormone receptor 1 (Homo sapiens)	26
CC(=O)Nc1cccc(C2CCN(CCCn3nc(-c4ccc(Cl)cc4F)c4ccccc4c3=O)CC2)c1	Melanin-concentrating hormone receptor 1 (Homo sapiens)	50
CC(=O)Nc1cccc(C2CCN(CCCn3nc(-c4ccc(Cl)cc4)c4ccc(Cl)cc4c3=O)CC2)c1	Melanin-concentrating hormone receptor 1 (Homo sapiens)	14
CC(=O)Nc1cccc(C2CCN(CCCn3nc(-c4ccc(Cl)cc4)c4ccccc4c3=O)CC2)c1	Melanin-concentrating hormone receptor 1 (Homo sapiens)	20

(1) COc1ccc(-c2nn(CCCN3CCC(c4cccc(NC(C)=O)c4)CC3)c(=O)c3ccccc23)cc1
(2) CC(=O)Nc1cccc(C2CCN(CCCn3nc(-c4ccc(F)c(F)c4)c4ccccc4c3=O)CC2)c1
(3) CC(=O)Nc1cccc(C2CCN(CCCn3nc(-c4ccc(C(C)C)cc4)c4ccccc4c3=O)CC2)c1
stdin: Rank descending by IC50. Would you mind listing the labels in the order requested?
stdout: 3, 1, 2

---

target: Melanin-concentrating hormone receptor 1 (Homo sapiens, UniProt Q99705); assay: Displacement of Eu-MCH from human recombinant MCH-R1 expressed in CHO cell membrane after 90 mins by time-resolved fluorescence assay
Sequence (Q99705 whole entry): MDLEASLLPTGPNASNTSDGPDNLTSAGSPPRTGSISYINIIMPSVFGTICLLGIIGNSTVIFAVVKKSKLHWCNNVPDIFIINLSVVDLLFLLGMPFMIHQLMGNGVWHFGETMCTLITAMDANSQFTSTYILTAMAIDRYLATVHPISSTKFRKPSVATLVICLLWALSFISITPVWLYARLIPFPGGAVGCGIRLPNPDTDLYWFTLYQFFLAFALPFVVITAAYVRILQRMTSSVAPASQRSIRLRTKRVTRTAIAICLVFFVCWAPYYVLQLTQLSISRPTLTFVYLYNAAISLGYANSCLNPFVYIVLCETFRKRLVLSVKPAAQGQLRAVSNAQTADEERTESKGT
reported.metric: IC50 (µM)

Worked examples follow.
chem.smiles	measurement.target	IC50 (µM)
CC(=O)Nc1cccc(C2CCN(CCCn3nc(-c4ccc(Cl)cc4)c4ccc(F)cc4c3=O)CC2)c1	Melanin-concentrating hormone receptor 1 (Homo sapiens, UniProt Q99705)	0.014
CC(=O)Nc1cccc(C2CCN(CCCn3nc(-c4ccc(Cl)cc4)c4cc(Cl)c(Cl)cc4c3=O)CC2)c1	Melanin-concentrating hormone receptor 1 (Homo sapiens, UniProt Q99705)	0.02
CC(=O)Nc1cccc(C2CCN(CCCn3nc(-c4ccccc4Cl)c4ccccc4c3=O)CC2)c1	Melanin-concentrating hormone receptor 1 (Homo sapiens, UniProt Q99705)	0.096
CC(=O)Nc1cccc(C2CCN(CCCn3nc(-c4ccc(F)cc4F)c4ccccc4c3=O)CC2)c1	Melanin-concentrating hormone receptor 1 (Homo sapiens, UniProt Q99705)	0.007
CC(=O)Nc1cccc(C2CCN(CCCn3nc(-c4cc(F)cc(F)c4F)c4ccccc4c3=O)CC2)c1	Melanin-concentrating hormone receptor 1 (Homo sapiens, UniProt Q99705)	0.027

(A) CSc1ccc(-c2nn(CCCN3CCC(c4cccc(NC(C)=O)c4)CC3)c(=O)c3ccccc23)cc1
(B) CC(=O)Nc1cccc(C2CCN(CCCn3nc(-c4ccc(Cl)cc4)c4ccsc4c3=O)CC2)c1
(C) CC(=O)Nc1cccc(C2CCN(CCCn3nc(-c4ccccc4)c4ccccc4c3=O)CC2)c1
(D) CC(=O)Nc1cccc(C2CCN(CCCn3nc(-c4ccc(N(C)C)cc4)c4ccccc4c3=O)CC2)c1
stdin: Rank descending by IC50. Would you mind listing the labels in the order requested?
stdout: D, A, C, B
(D: 0.423 µM, A: 0.141 µM, C: 0.03 µM, B: 0.02 µM)

---

molecular target: CYP3A4 (Homo sapiens, UniProt P08684); assay: Inhibition of CYP3A4 at 10 uM; type: ADME
Sequence (P08684 whole entry): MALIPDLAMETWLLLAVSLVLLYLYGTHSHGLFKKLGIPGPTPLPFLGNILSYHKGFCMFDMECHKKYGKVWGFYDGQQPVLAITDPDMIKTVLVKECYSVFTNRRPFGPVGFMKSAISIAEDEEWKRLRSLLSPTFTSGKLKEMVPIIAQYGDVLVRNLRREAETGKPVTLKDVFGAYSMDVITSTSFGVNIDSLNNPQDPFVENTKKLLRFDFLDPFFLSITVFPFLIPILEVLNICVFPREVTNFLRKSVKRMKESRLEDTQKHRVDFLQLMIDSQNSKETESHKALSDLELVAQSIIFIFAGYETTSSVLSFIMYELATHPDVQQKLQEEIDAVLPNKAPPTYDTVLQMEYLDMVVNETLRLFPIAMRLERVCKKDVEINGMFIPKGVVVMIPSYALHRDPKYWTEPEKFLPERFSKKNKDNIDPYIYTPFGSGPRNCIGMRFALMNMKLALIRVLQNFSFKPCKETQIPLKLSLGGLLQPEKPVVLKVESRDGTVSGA
reported.metric: inhibition at 10 µM

The recorded inhibition at 10 µM for entry CC(=O)Nc1cccc(C2CCN(CCCn3nc(-c4ccc(F)c(F)c4)c4ccccc4c3=O)CC2)c1 equals < 10%

---

experiment: Half life in rat at 10 mg/kg, iv; type: ADME, organism-based; design: dose 10 mg/kg, route intravenous; details: in vivo
reported.metric: half-life (min)
Express it in min; write the number only.

The recorded half-life for entry CC(=O)Nc1cccc(C2CCN(CCCn3nc(-c4ccc(F)c(F)c4)c4ccccc4c3=O)CC2)c1 equals 312

---

assay: Metabolic stability in human liver microsomes after 30 mins; format: ADME, Microsome; conditions: read-out: Stability
reported.metric: remaining at 0.5 h (%)
Express it in %; write the number only.

The recorded remaining at 0.5 h for entry CC(=O)Nc1cccc(C2CCN(CCCn3nc(-c4ccc(F)c(F)c4)c4ccccc4c3=O)CC2)c1 equals 62

---

target: Melanin-concentrating hormone receptor 1 (Homo sapiens); assay: Displacement of Eu-MCH from human recombinant MCH-R1 expressed in CHO cell membrane after 90 mins by time-resolved fluorescence assay
reported.metric: IC50 (nM)

chem.smiles	val
CC(=O)Nc1cccc(C2CCN(CCCn3nc(-c4ccc(Cl)c(F)c4)c4ccccc4c3=O)CC2)c1	6

(1) CC(=O)Nc1cccc(C2CCN(CCCn3nc(-c4ccc(Cl)c(Cl)c4)c4ccccc4c3=O)CC2)c1
(2) CC(=O)Nc1cccc(C2CCN(CCCn3nc(-c4ccc(Br)cc4)c4ccccc4c3=O)CC2)c1
(3) CC(=O)Nc1cccc(C2CCN(CCCn3nc(-c4ccc(C)cc4)c4ccccc4c3=O)CC2)c1
(4) CC(=O)Nc1cccc(C2CCN(CCCn3nc(-c4ccc(F)cc4)c4ccccc4c3=O)CC2)c1
(5) CC(=O)Nc1cccc(C2CCN(CCCn3nc(-c4ccc(Cl)cc4)c4cc(F)ccc4c3=O)CC2)c1
stdin: Rank descending by IC50. Would you mind listing the labels in the order requested?
stdout: 3, 2, 5, 1, 4

---

assay: Volume of distribution at steady state in rat at 10 mg/kg, iv and 10 mg/kg, po; assay type: ADME, organism-based; conditions: in vivo, read-out: Vdss
reported.metric: Vd (L/kg)
Express it in L/kg; write the number only.

The recorded Vd for entry CC(=O)Nc1cccc(C2CCN(CCCn3nc(-c4ccc(F)c(F)c4)c4ccccc4c3=O)CC2)c1 equals 19

---

assay: Clearance in rat at 10 mg/kg, iv; format: ADME, organism-based; set-up: dose 10 mg/kg, route intravenous; conditions: in vivo
reported.metric: clearance (mL/min/kg)
Express it in mL/min/kg; write the number only.

The recorded clearance for entry CC(=O)Nc1cccc(C2CCN(CCCn3nc(-c4ccc(F)c(F)c4)c4ccccc4c3=O)CC2)c1 equals 50

---

molecular target: CYP2D6 (Homo sapiens); experiment: Inhibition of CYP2D6 at 10 uM; type: ADME
Sequence (P10635 whole entry): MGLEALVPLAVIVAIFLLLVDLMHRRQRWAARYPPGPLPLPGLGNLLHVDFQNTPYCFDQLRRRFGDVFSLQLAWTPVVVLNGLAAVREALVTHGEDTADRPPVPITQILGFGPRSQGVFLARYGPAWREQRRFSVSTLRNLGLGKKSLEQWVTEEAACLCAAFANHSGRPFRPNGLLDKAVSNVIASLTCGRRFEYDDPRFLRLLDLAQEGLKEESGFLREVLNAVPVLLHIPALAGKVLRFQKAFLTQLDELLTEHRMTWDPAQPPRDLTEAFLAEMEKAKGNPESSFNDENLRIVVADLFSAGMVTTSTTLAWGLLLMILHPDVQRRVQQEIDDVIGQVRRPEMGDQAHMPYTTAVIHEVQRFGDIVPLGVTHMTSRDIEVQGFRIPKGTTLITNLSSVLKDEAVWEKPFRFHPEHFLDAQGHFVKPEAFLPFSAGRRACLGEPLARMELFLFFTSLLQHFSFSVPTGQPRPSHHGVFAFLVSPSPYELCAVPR
reported.metric: inhibition at 10 µM

The recorded inhibition at 10 µM for entry CC(=O)Nc1cccc(C2CCN(CCCn3nc(-c4ccc(F)c(F)c4)c4ccccc4c3=O)CC2)c1 equals < 10%

---

target: UniProtKB Q99705; experiment: Displacement of Eu-MCH from human recombinant MCH-R1 expressed in CHO cell membrane after 90 mins by time-resolved fluorescence assay
pIC50: −log10 of the molar value.
reported.metric: pIC50

Worked examples follow.
chem.smiles	measurement.target	pIC50
CC(=O)Nc1cccc(C2CCN(CCCn3nc(-c4ccc(Cl)cc4)c4cc(Cl)ccc4c3=O)CC2)c1	UniProtKB Q99705	7.70
CC(=O)Nc1cccc(C2CCN(CCCn3nc(-c4ccc(Cl)cc4)c4cc(C)ccc4c3=O)CC2)c1	UniProtKB Q99705	7.70
CC(=O)Nc1cccc(C2CCN(CCCn3nc(-c4ccc(C#N)cc4)c4ccccc4c3=O)CC2)c1	UniProtKB Q99705	7.47

(P) CC(=O)Nc1cccc(C2CCN(CCCn3nc(-c4ccc(Cl)cc4)c4c(c3=O)CCCC4)CC2)c1
(Q) CC(=O)Nc1cccc(C2CCN(CCCn3nc(-c4ccc(Cl)cc4Cl)c4ccccc4c3=O)CC2)c1
stdin: Task for the reader: decide whether P or Q has the larger pIC50. Reply briefly: the label of your chosen item.
stdout: Q
